# METHOD_DESCRIPTION: Selectivity coefficient as ratio of Kcat/Km for MAO-A and Kcat/Km for MAO-B
Entry flag: criterion met if Selectivity coefficient reaches 1; criterion not met if it does not.

Check the entry Cc1cccc(OC2=CCN(C)CC2)c1 : does Selectivity coefficient equal or exceed 1?
criterion met

***
Check the entry CN1CC=C(Oc2ccccc2-c2ccccc2)CC1 : does Selectivity coefficient equal or exceed 1?
criterion met

Check the entry CN1CC=C(Oc2ccc([N+](=O)[O-])cc2)CC1 : does Selectivity coefficient equal or exceed 1?
criterion met

Check the entry CN1CC=C(Oc2ccccc2Cl)CC1 : does Selectivity coefficient equal or exceed 1?
criterion met

Check the entry COc1cccc(OC2=CCN(C)CC2)c1 : does Selectivity coefficient equal or exceed 1?
criterion met

Check the entry CN1CC=C(Oc2cccc(-c3ccccc3)c2)CC1 : does Selectivity coefficient equal or exceed 1?
criterion met

Check the entry CN1CC=C(Oc2ccc(Cl)cc2)CC1 : does Selectivity coefficient equal or exceed 1?
criterion met

Check the entry CN1CC=C(Cc2ccccc2)CC1 : does Selectivity coefficient equal or exceed 1?
criterion not met

Check the entry CN1CC=C(Oc2ccccc2[N+](=O)[O-])CC1 : does Selectivity coefficient equal or exceed 1?
criterion met

Check the entry CN1CC=C(c2ccccc2)CC1 : does Selectivity coefficient equal or exceed 1?
criterion not met

Check the entry Cc1ccccc1OC1=CCN(C)CC1 : does Selectivity coefficient equal or exceed 1?
criterion met

Check the entry CN1CC=C(Oc2ccccc2)CC1 : does Selectivity coefficient equal or exceed 1?
criterion not met
